Conditions: buffer; pH 7.4; 200.0 µM
In this section, each of the compounds is paired with its reported solubility kinetic.

| Compound | solubility kinetic |
| --- | --- |
| NC(=O)C(=O)NCCCN1CCOCC1 | > 32.3 µg/mL |
| Cc1ccc(NC(=O)CN(C)C(=O)c2ccc(Cl)nc2)cc1 | > 47.7 µg/mL |
| COc1cc2c(cc1NC(=O)CCC(=O)O)oc1ccccc12 | 46.7 µg/mL |
| Cc1nc(Cl)sc1C(=O)Nc1cccc(Cl)c1 | 34.8 µg/mL |
| CCN(Cc1ccccc1)C(=O)c1cccnc1 | 35.9 µg/mL |
| CC(=O)c1cnc(Oc2cc(Cl)ccc2Cl)nc1C | 42.4 µg/mL |
| CN(CC(=O)NCc1cccnc1)S(=O)(=O)c1ccccc1 | > 47.9 µg/mL |
| C=CCOC(=O)C1=C(C)NC(=O)NC1c1ccc(O)cc1 (configuration not stated) | > 43.2 µg/mL |
| O=C1CN(C(=O)COC(=O)CCS(=O)(=O)c2ccccc2Cl)c2ccccc2N1 | > 65.5 µg/mL |
| CC(=O)Nc1ccc(CN2CCCN(C)CC2)cc1 | 29.2 µg/mL |
| Cc1[nH]c2ccccc2c1/C=N/NC(=O)c1ccccc1 | > 41.6 µg/mL |
| O=C(C(=O)N1CCN(c2ccc(F)cc2)CC1)c1c[nH]c2ccccc12 | 6.9 µg/mL |

---

Conditions: buffer; pH 7.4; 200.0 µM
Binary classification by solubility kinetic, with 20 µg/mL as an inclusive lower bound for true (1); all other cases are false (0).

| Compound | Classification |
| --- | --- |
| C=CCn1cc(C=C2C(=O)N(C)C(=O)N(C)C2=O)c2ccccc21 | false (0) |
| CC(=O)CC1(O)C(=O)Nc2ccccc21 (configuration not stated) | true (1) |
| CN(C(=S)NC(=O)c1ccc(Cl)cc1)C1CCCCC1 | false (0) |
| COCCN1C(=O)c2ccc(C(=O)NCc3ccco3)cc2C1=O | true (1) |
| CSc1ccccc1NC(=O)c1ccccc1 | true (1) |
| O=C(Nc1ccccc1)Nc1cnccn1 | false (0) |
| O=C(CSc1ncccn1)NCc1cccs1 | true (1) |

---

Details: buffer; pH 7.4; 200.0 µM
In this section, each of the molecules is paired with its reported solubility kinetic.
Experimental endpoint: solubility kinetic (µg/mL)

| Molecule | Uom | Qualifying sign | Reading |
| --- | --- | --- | --- |
| CC1CC(=O)Nc2ccccc2N1C(=O)Nc1ccc(F)cc1 (stereo not drawn) | µg/mL | > | 47 |
| Cc1ccc(NC(=O)OCCNC(=O)OC(C)C)cc1 | µg/mL | = | 33.1 |
| O=C(c1cccs1)N1CCN(c2ccc(Cl)cc2)CC1 | µg/mL | = | 39.2 |
| Cc1nc(N)c(CC(Br)CBr)c(Cl)n1 (stereo not drawn) | µg/mL | = | 49.1 |
| Cc1ccc(CN2C(=O)CSC(C)C2=O)cc1 (stereo not drawn) | µg/mL | > | 37.4 |
| S=C(Nc1ccc(Oc2ccccc2)cc1)Nc1cccnc1 | µg/mL | = | 30 |
| Cc1ccc(NC(=S)N2CCN(S(C)(=O)=O)CC2)cc1C | µg/mL | = | 9.1 |
| COc1ccc(Cl)cc1NC(=S)N1CCN(S(C)(=O)=O)CC1 | µg/mL | > | 54.6 |
| Cc1c(C)n(CCO)c2ncnc(Nc3ccc(F)cc3)c12 | µg/mL | > | 45.1 |
| Cc1ccc(S(=O)(=O)CC(=O)Nc2ccccn2)cc1 | µg/mL | = | 42.3 |
| Cc1ccccc1Sc1ccc([N+](=O)[O-])cn1 | µg/mL | = | 7.4 |
| Cc1cccc(C)c1NC(=O)N1CCC(C(=O)c2ccc(F)cc2)CC1 | µg/mL | = | 15.4 |
| CC(C)(C)c1cc(NC(=O)Nc2ccc(Cl)cc2Cl)no1 | µg/mL | < | 0.2 |
| CCOCc1[nH]c(=S)[nH]c(=O)c1Cc1ccc(OC(C)C)cc1 | µg/mL | > | 50.2 |
| CC(C)C(NC(=O)c1ccccc1F)C(=O)NCCCn1ccnc1 (stereo not drawn) | µg/mL | > | 52 |
| Cc1ccc(-c2cc(C(=O)N3CCC4(CC3)OCCO4)no2)cc1 | µg/mL | = | 44 |
| O=C(O/N=C1\CCCc2ccccc21)C1CC1 | µg/mL | = | 28.3 |
| Cc1cnc(C(=O)OCC(=O)NCc2ccc(Cl)cc2)cn1 | µg/mL | > | 48 |
| Cl.Fc1ccc(Nc2nc(NCc3ccco3)c3ccccc3n2)cc1 | µg/mL | = | 2.1 |
| CCOC(=O)Cn1ccc(NC(=O)c2ccc(F)cc2)n1 | µg/mL | > | 43.7 |
| CC(C)CNC(=O)C1CCN(CC2CCCCC2)CC1.O=C(O)C(=O)O | µg/mL | > | 55.6 |
| Cc1ccc(F)cc1NC(=O)N1CCCN(C(=O)OC(C)(C)C)CC1 | µg/mL | = | 46.9 |
| COc1ccc(CC(=O)Nc2ccc(OC)nc2)cc1 | µg/mL | > | 40.8 |
| O=C(CCC(=O)c1ccc(Cl)cc1)NCc1ccccc1 | µg/mL | = | 14.3 |
| Cc1cccc(-c2noc(CCC(=O)NC3CCCCC3)n2)c1 | µg/mL | = | 3.4 |
| O=C(Nc1c(F)cccc1F)C(c1ccccc1)c1ccccc1 | µg/mL | < | 0.7 |
| CC(C)n1c(C(F)(F)F)nc2cc(C(=O)N3CCOCC3)ccc21 | µg/mL | > | 51.2 |
| O=C(CN1C(=O)C2CCCCC2C1=O)Nc1cccc(C(F)(F)F)c1 (stereo not drawn) | µg/mL | > | 53.1 |
| COc1cccc(N2CCN(CC(=O)NC(C)c3ccccc3)CC2)c1 (stereo not drawn) | µg/mL | = | 45 |
| O=C(NCCCn1ccnc1)c1cccc(Br)c1 | µg/mL | = | 46.2 |
| Cc1cccc(-n2c(SCC(N)=O)nnc2-c2ccco2)c1 | µg/mL | > | 47.2 |
| Cc1cccc(N=Cc2c(O)n(C)c(=O)n(C)c2=O)c1 | µg/mL | = | 10 |
| O=C(NC(=S)N1CCCC(O)C1)c1ccco1 (stereo not drawn) | µg/mL | > | 38.1 |
| O=C(COC(=O)c1ccccc1)NC1CCCC1 | µg/mL | > | 37.1 |
| Cc1ccc(-c2nc(-c3ccncc3)no2)c(C)c1 | µg/mL | = | 0.5 |
| COc1cc(S(=O)(=O)N2CCOCC2)ccc1NC(=O)COC(=O)c1ccc(Cl)nc1 | µg/mL | = | 6.4 |
| Cc1ccc(NC(=O)CN(C)C(=O)COc2cccc3ccc(C)nc23)cc1 | µg/mL | = | 3.9 |
| Cc1ccc2sc(NC(=O)C3CC3)nc2c1C | µg/mL | = | 1.3 |
| CCOC(=O)C1CCCN(C(=O)COc2ccc(C(=O)c3ccc(F)cc3)cc2)C1 (stereo not drawn) | µg/mL | > | 62 |
| COc1cc(NC(=O)Cn2c([N+](=O)[O-])cnc2C)c(OC)cc1Cl | µg/mL | = | 45.3 |
| O=C(CSc1ccc(Cl)cc1)NCc1ccco1 | µg/mL | = | 16.3 |
| Cc1ccc(C(C)C)c(OCCCCCN2CCOCC2)c1 | µg/mL | = | 12.8 |
| Cc1cc(Br)c(NC(=O)COC(=O)c2ccc[n+]([O-])c2)c(Br)c1 | µg/mL | > | 66.6 |
| Nc1ccc(CCNc2ncnc3c2ncn3[C@@H]2O[C@H](CO)[C@@H](O)[C@H]2O)cc1 | µg/mL | > | 58 |
| Cc1ccc(NC(=O)CN2C(=O)c3ccccc3C2=O)c(C)c1 | µg/mL | = | 4.4 |
| COc1ccc(S(=O)(=O)NC2CCCCC2)cc1F | µg/mL | > | 43.1 |
| Nc1ccc(Cl)c(S(=O)(=O)Nc2cccc(Cl)c2)c1 | µg/mL | = | 43.4 |
| CCOC(=O)c1[nH]c2cc3c(cc2c1NC(=O)CN1CCCC1)OCO3 | µg/mL | = | 18 |

---

Details: buffer; pH 7.4; 200.0 µM
In this section, each of the molecules is paired with its reported solubility kinetic.

| Molecule | solubility kinetic |
| --- | --- |
| COc1ccc(S(=O)(=O)NC2CC2)cc1Br | > 45.9 µg/mL |
| O=C(O)C1CCC(CNS(=O)(=O)c2ccccc2)CC1 (stereo not given) | > 44.6 µg/mL |
| CSc1ccccc1NC(=O)COc1ccc2c(c1)OCO2 | 41.4 µg/mL |
| CN1CCCN(S(=O)(=O)c2ccccc2)CC1.Cl | 39.8 µg/mL |
| CC(C)N1CCN(Cc2cc3ccccc3[nH]2)CC1CCO (stereo not given) | > 45.2 µg/mL |
| CCC(C(=O)Nc1cccnc1Cl)c1ccccc1 (stereo not given) | 30.2 µg/mL |
| O=C(NC1CCN(Cc2ccccc2)CC1)c1ccc(Cl)cc1Cl | > 54.5 µg/mL |
| COc1ccc(OC)c(S(=O)(=O)NC2CC2)c1 | > 38.6 µg/mL |
| COCCNC(=S)N1CCN(C)CC1.O=C(O)C(=O)O | > 46.1 µg/mL |
| O=C(CN1C(=O)c2ccccc2C1=O)Nc1cc([N+](=O)[O-])ccc1O | > 51.2 µg/mL |
| COc1ccccc1N1CCN(c2ccc([N+](=O)[O-])cn2)CC1 | 16.2 µg/mL |
| Cc1ccccc1N1CCN(CCCN2C(=O)C3CCCCN3C2=O)CC1 (stereo not given) | 40.7 µg/mL |
| O=C(CN1CCCCCC1)Nc1cc([N+](=O)[O-])ccc1Cl | 22.6 µg/mL |
| CNP(=O)(Oc1ccccc1)OC12CC3CC(CC(C3)C1)C2 (stereo not given) | > 48.2 µg/mL |
| Brc1ccc(-c2csc(N3CCOCC3)n2)cc1 | < 0.3 µg/mL |
| CCOC(=O)c1c(C=O)c2ccccc2n1Cc1ccccc1 | < 0.7 µg/mL |
| O=S(=O)(Nc1ccccc1N1CCOCC1)c1ccccc1C(F)(F)F | 7.3 µg/mL |
| Cc1cc(=O)oc2cc(OCC(=O)Nc3cccnc3)ccc12 | 10.5 µg/mL |
| CSc1ccccc1C(=O)OCC(=O)NCCN1C(=O)CSC1=O | > 55.3 µg/mL |
| COc1nc2c(c(-c3cc(Br)cs3)c1C#N)Cc1ccccc1-2 | < 0.4 µg/mL |
| O=C(Cn1c(=O)oc2ccc(Cl)cc21)NC1CCCCC1 | 2.9 µg/mL |
| C[C@@H](C(=O)OCC(=O)c1ccccc1)N1C(=O)C2CCCCC2C1=O (stereo not given in full) | > 51.5 µg/mL |
| Cc1ccc(C(=O)Nc2ccccc2C(=O)N2CCCCCC2)cc1 | > 50.5 µg/mL |
| COCCCNC(=S)Nc1cc(C)c(C)cc1C | > 40 µg/mL |
| CCN(CC)CC(O)Cn1c(-c2ccccc2Cl)nc2ccccc21 (stereo not given) | > 53.7 µg/mL |
